Assay: Cytotoxicity against human UACC62 cells assessed as growth inhibition after 72 hrs by MTT assay
Type: functional
Details: UACC-62, 72 h
measured.endpoint: GI50 (nM)
Give just the numeric value; nM need not be written.

In the examples that follow, each entry is paired with its recorded GI50.
[
  {
    "input.smiles": "COc1cc2nnc3c4cccnc4[nH]c3c2cc1OC",
    "GI50 (nM)": 2490
  },
  {
    "input.smiles": "COc1cc2nnn3c4ncccc4c(N=O)c3c2cc1OC",
    "GI50 (nM)": 2920
  },
  {
    "input.smiles": "COc1ccc2c(c1)nnc1c3cccnc3[nH]c21",
    "GI50 (nM)": 910
  },
  {
    "input.smiles": "O=Nc1c2cccnc2n2nnc3ccc(Cl)cc3c12",
    "GI50 (nM)": 2360
  }
]

Would you kindly look at the next entry?
Q. Given the compound `COc1ccc2c(c1)nnn1c3ncccc3c(N=O)c21` , what is its reported GI50?
A. 850
